System: KM12
testDescription: NCI tumour cell line growth inhibition, 48 h
Activity calls are given as the source filed them. Cut-off read from the data, not from the text of the source: active = GI50 up to about 1.1 µM and inactive = higher.
propertyLabel: GI50

compound | GI50
CCC1(O)C=CC(=O)C=C1 | 15 µM (inactive)
CC(=O)OC1CCC2C(=CCC3C2(C)C(=O)CC2(C)C(C4(C)OC(C(C)C)=CC4=O)C(O)CC32C)C1(C)C (stereo unspecified) | > 10 µM (inactive)
C=C(C)c1nc(C#N)c(N)o1 | > 100 µM (inactive)
O=C1Nc2ccccc2Nc2ccncc21 | > 100 µM (inactive)

Query GI50 for `O=C(O)c1c(-c2nccc3ccccc23)[nH]c(-c2ccccc2)c1S(=O)(=O)O`
> 100 µM (inactive)

Query GI50 for `CCN(CCCl)CCCNc1c2ccccc2nc2ccc(OC)cc12`
0.141 µM (active)

Query GI50 for `CCCCCCN(CCCCCC)C(=S)N/N=C(\C)c1ccccn1`
1.05 µM (active)

* * *

Test system: SNB-75
testDescription: NCI tumour cell line growth inhibition, 48 h
Calls of active or inactive are those of the source. No stated cut-off is given here; in the data, active = GI50 up to about 1.1 µM and inactive = higher.
propertyLabel: GI50

Consider the worked cases shown below.
compound | testedOn | GI50
COc1cccc2c1OC(c1cccc3ccccc13)C([N+](=O)[O-])=C2 (stereo unspecified) | SNB-75 | 1.32 µM (inactive)
CC(=O)N(/N=C\c1ccc([N+](=O)[O-])cc1)c1ccccc1 | SNB-75 | 48.3 µM (inactive)
O=C(O)C1(Nc2ccc(Cl)cc2)CCCC1 | SNB-75 | > 100 µM (inactive)
CCCN(CCC)c1c([N+](=O)[O-])cc(C(=O)N(C)C)cc1[N+](=O)[O-] | SNB-75 | 17 µM (inactive)
c1csc(-c2ccc(-c3cccs3)c3nsnc23)c1 | SNB-75 | 19.7 µM (inactive)

Query GI50 for CSc1cnc2ccccc2c1SC1CN(Cc2ccccc2)c2ccccc2C1=O (stereo unspecified)
83.4 µM (inactive)

Query GI50 for `C=Cc1cc2c(cc1O)CC[C@@H]1[C@@H]2CC[C@]2(C)[C@@H](O)CC[C@@H]12`
5.38 µM (inactive)

Query GI50 for C[S+]([O-])c1cc(=O)c2ccccc2s1 (stereo unspecified)
11.4 µM (inactive)

Query GI50 for `COc1ccc(/C(=C/n2ccnc2)C(=O)c2ccc(OC)c(OC)c2)cc1`
> 100 µM (inactive)

Query GI50 for CCOC(=O)C1(C/C=C\CBr)CCCC1=O (stereo unspecified)
27 µM (inactive)

Query GI50 for `CC(=O)OCSc1ncnc2c1ncn2CN1CCOCC1`
13.2 µM (inactive)

* * *

Test system: ACHN
testDescription: NCI tumour cell line growth inhibition, 48 h
Calls of active or inactive are those of the source. Cut-off read from the data, not from the text of the source: active = GI50 up to about 1.1 µM and inactive = higher.
propertyLabel: GI50

Consider the worked cases shown below.
molecule | GI50
Cc1nc(Nc2nc3ccccc3[nH]2)[nH]c(=O)c1CCO | 50.9 µM (inactive)
CN(CCCNC(=O)c1nn(C)c2c1Cc1ccccc1-2)CCCNC(=O)c1nn(C)c2c1Cc1ccccc1-2 | 16.7 µM (inactive)
CN(C)c1ccc(/C=C/C=c2/c3ccccc3n3c2cc(-c2ccccc2)[n+]3C)cc1 | 0.218 µM (active)
Clc1ccc2c(Cl)ncnc2c1I | > 10 µM (inactive)
C/C(=N\O)c1ccc2ccc3ccccc3c2c1 | 32.8 µM (inactive)
O=C(O)c1ccc(/N=C(\C(=N\c2ccc(C(=O)O)cc2)c2ccccc2)c2ccccc2)cc1 | > 100 µM (inactive)
Cc1ccc(N2C(=O)C3C=CC(n4[nH]c(=O)n(Cc5ccccc5)c4=O)CC3C2=O)cc1 (stereo not given) | > 100 µM (inactive)
CCN(CC)C(c1ccc(N(C)C)cc1)C(c1ccc(N(C)C)cc1)N(CC)CC (stereo not given) | 47 µM (inactive)

Query GI50 for COc1cccc2c1C(=O)c1c(O)c3c(c(O)c1C2=O)C[C@@](O)(C(=O)CO)C[C@@H]3OC1CC(N)C(OC)C(C)O1 (stereo not given in full)
0.0242 µM (active)

Query GI50 for `NC(=O)COc1c(Br)cc(Br)cc1Br`
> 100 µM (inactive)

* * *

Tested on: HT-29
testDescription: NCI tumour cell line growth inhibition, 48 h
Activity calls are given as the source filed them. No stated cut-off is given here; in the data, active = GI50 up to about 1.1 µM and inactive = higher.
# GI50 annotations

Consider the worked cases shown below.
molecule | GI50
N=C(N)NCCCS(=O)(=O)Nc1ccc(Nc2c3ccccc3nc3cc([N+](=O)[O-])ccc23)cc1 | 16.9 µM (inactive)
COC(=O)C1(Cc2ccc3c(c2)CCC3)Cc2cc3c(cc2C1)CCC3 | 22.5 µM (inactive)
O=C(O)CCC1NC(/C(=C/c2ccccc2O)NC(=O)c2ccccc2)OC1=O (stereo not given) | > 100 µM (inactive)
Cc1ccc(C)c(NC(=O)C(=O)Nn2c(S)nc3ccccc3c2=O)c1 | > 100 µM (inactive)
O=C1c2cc3ncsc3cc2C(=O)c2c(O)ccc(O)c21 | > 100 µM (inactive)

Attention now turns to another entry.
Query GI50 for `COc1ccc(NC(=S)NNC(=O)c2cc(-c3ccccc3)nc3ccccc23)cc1`
19.9 µM (inactive)

* * *

Test system: K562
testDescription: NCI tumour cell line growth inhibition, 48 h
Calls of active or inactive are those of the source. No stated cut-off is given here; in the data, active = GI50 up to about 1.1 µM and inactive = higher.
Can you answer with just one of these options? 1 (yes) for active, 0 (no) for inactive

Example entries begin here.
molecule | cat
Oc1nc(-c2ccccc2)cc(-c2ccccc2O)n1 | 0 (no)
CN(CCC(=O)O)C1=Nc2ccc(Cl)cc2C(c2ccccc2)=[N+]([O-])C1 | 0 (no)
Cc1ccc(Sc2ccccc2N)cc1 | 0 (no)
O=C1C(c2ccccc2)=C(c2ccccc2)C(c2ccc(Sc3ccc(C4=C(c5ccccc5)C(=O)C(c5ccccc5)=C4c4ccccc4)cc3)cc2)=C1c1ccccc1 | 0 (no)

Hi, do you know how O=C(O)CCC1NC(/C(=C/c2ccccc2O)NC(=O)c2ccccc2)OC1=O (stereo unspecified) came out in this test?
0 (no)

Hi, do you know how `COc1c2c(cc3occ(-c4ccc(CC=C(C)C)cc4)c(=O)c13)OC(C)(C)C=C2` came out in this test?
0 (no)

Hi, do you know how CCOC(=O)CCC(NC(=O)c1ccc(OCc2ccc3nc(-c4ccccc4)c(Cl)nc3c2)cc1)C(=O)OCC (stereo unspecified) came out in this test?
0 (no)

Hi, do you know how COC(COC(N)=O)C1=C(N2CC2)C(=O)C(C)=C(N2CC2)C1=O (stereo unspecified) came out in this test?
1 (yes)

Hi, do you know how `O=[N+]([O-])c1cc(Cl)cc2c1nc(NCCO)c1ccccc12` came out in this test?
0 (no)

Hi, do you know how Cc1ccc(Sc2ccccc2C23OC(C)(C4C(=O)N(c5ccccc5)C(=O)C42)N(C)C3=O)cc1 (stereo unspecified) came out in this test?
0 (no)

Hi, do you know how `CC(C)(C)NC(=S)N/N=C/c1ccccn1` came out in this test?
1 (yes)

Hi, do you know how `CSC1=NN(c2ccccc2)C(=O)C1=C(SC)SC` came out in this test?
0 (no)

Hi, do you know how `Oc1cc2c(cc1O)-c1[nH]ncc1CC2` came out in this test?
0 (no)

Hi, do you know how `Cc1cc(N(CCC#N)CCC#N)ccc1/C=C(\NC(=O)/C=C/c1ccccc1)NC(=O)Nc1ccc(Cl)cc1` came out in this test?
0 (no)

* * *

Test system: UACC-62
testDescription: NCI tumour cell line growth inhibition, 48 h
Activity calls are given as the source filed them. Cut-off read from the data, not from the text of the source: active = GI50 up to about 1.1 µM and inactive = higher.
# GI50 annotations

compound | testedOn | valueReported
C#C[C@]1(O)CC[C@H]2[C@@H]3CCC4=C/C(=N\OCCN5CCCC5)CC[C@]4(C)[C@H]3CC[C@@]21C | UACC-62 | 10.4 µM (inactive)
N#C/N=C(/NCc1ccccc1)N(Cc1ccccc1)Cc1ccccc1 | UACC-62 | 8.13 µM (inactive)
CCCO[C@@H]1[C@@H](OC(C)=O)[C@@H](OC(C)=O)C(C)(C)/C=C/[C@H](C)C(=O)[C@@]2(OC(C)=O)C[C@@](C)(OC(C)=O)[C@H](OC(C)=O)[C@@H]2[C@H]2OC(=O)CC[C@@]12OC(=O)c1ccccc1 | UACC-62 | > 25 µM (inactive)
CCCN(CCC)c1c([N+](=O)[O-])cc(S(N)(=O)=O)cc1[N+](=O)[O-] | UACC-62 | 18.3 µM (inactive)
Cc1c(-c2coc(-c3ccc(Cl)cc3)n2)c(=O)n(-c2ccccc2)n1C | UACC-62 | > 100 µM (inactive)
Cc1ccc(C)c(NC(=O)C(=O)Nn2c(S)nc3ccccc3c2=O)c1 | UACC-62 | > 100 µM (inactive)

Query GI50 for `O=C(O)c1c(-c2nccc3ccccc23)[nH]c(-c2ccccc2)c1S(=O)(=O)O`
> 100 µM (inactive)

* * *

Test system: K562
testDescription: NCI tumour cell line growth inhibition, 48 h
Activity calls are given as the source filed them. No stated cut-off is given here; in the data, active = GI50 up to about 1.1 µM and inactive = higher.
Can you answer with just one of these options? T for active, F for inactive

Hi, do you know how `COc1cc(C(=O)N[C@H]2CCc3cc(OC)c(OC)c(OC)c3-c3ccc(SC)c(=O)cc32)cc(OC)c1OC` came out in this test?
T

Hi, do you know how `S=c1sc2ccccc2n1CN1CCN(Cc2ccccc2)CC1` came out in this test?
F

Hi, do you know how `O=c1[nH]c2ccccc2cc1C(Cl)=C(Cl)Cl` came out in this test?
F

Hi, do you know how `O=c1[nH]nc(Cc2ccc(Cl)cc2)n1/N=C\CC/C=N\n1c(Cc2ccc(Cl)cc2)n[nH]c1=O` came out in this test?
F

Hi, do you know how CN1C(=O)CN2C(Cl)(Cl)C2(c2ccccc2)c2cc(Cl)ccc21 (stereo not given) came out in this test?
F

Hi, do you know how `O=C(O)[C@H]1CCCN1CP(=O)(O)CN1CCC[C@@H]1C(=O)O` came out in this test?
F

Hi, do you know how C[C@]12CCC(=O)C(O)=C1CC[C@@H]1C2CC[C@]2(C)NC(=O)CCC12 (stereo not given in full) came out in this test?
F

Hi, do you know how `CCc1cccc(C)c1NC(=O)C(=O)Cc1nc2ccccc2s1` came out in this test?
F

Hi, do you know how `Oc1c(-c2ccccc2)sc2ccccc12` came out in this test?
F

Hi, do you know how Cc1ccc(N2C(=O)C3C=CC(n4[nH]c(=O)n(Cc5ccccc5)c4=O)CC3C2=O)cc1 (stereo not given) came out in this test?
F
